Biological target: human recombinant A3AR (Homo sapiens, UniProt P0DMS8)
Construct: expressed in transfected cells; membrane preparation
Sequence (P0DMS8 whole entry): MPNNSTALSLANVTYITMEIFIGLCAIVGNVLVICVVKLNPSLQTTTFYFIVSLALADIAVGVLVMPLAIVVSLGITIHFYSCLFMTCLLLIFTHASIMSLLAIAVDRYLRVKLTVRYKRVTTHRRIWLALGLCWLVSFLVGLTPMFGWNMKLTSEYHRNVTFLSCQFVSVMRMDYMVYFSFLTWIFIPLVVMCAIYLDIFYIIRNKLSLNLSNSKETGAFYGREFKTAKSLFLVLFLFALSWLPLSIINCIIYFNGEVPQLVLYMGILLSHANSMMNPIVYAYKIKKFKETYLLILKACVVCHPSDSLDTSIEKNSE
Assay: Radioligand binding at human A3AR ([3H]HEMADO displacement, CHO cell membranes)
Settings: displacement of [3H]HEMADO, n = 3–5, means ± standard errors
Protocol: The affinities of the newly synthesized compounds 7–13 and 17–21 were determined in binding studies at human recombinant A1, A2A, and A3 ARs, stably transfected in Chinese hamster ovary (CHO) cells, using [^3H]CCPA (2-chloro-N^6-cyclopentylAdo), [^3H]NECA (5′-N-ethylcarboxamidoAdo), and [^3H]HEMADO (2-hexynyl-N^6-methylAdo) as respective radioligands. Most of the compounds were also evaluated at A2BARs in a functional study using the GloSensor cAMP assay. […]
just bin them by Ki: I = under 0.8 µM, II = from 0.8 µM up to 10 µM, III = 10 µM and over

INSERT INTO assay_data (smiles_text, group_label) VALUES
  ('CCn1c(-c2ccco2)nc2c(N)nc(NCCc3ccc(OC)cc3)nc21', 'I'),
  ('CCn1c(O)nc2c(N)nc(NCCc3ccc(O)cc3)nc21', 'III'),
  ('CSc1nc(N)n2nc(S(C)(=O)=O)nc2n1', 'III'),
  ('CCn1c(Br)nc2c(N)nc(NCCc3ccc(OC)cc3)nc21', 'II'),
  ('CCOc1nc(N)n2nc(OCC)nc2n1', 'II'),
  ('CCn1c(Br)nc2c(N)nc(NCCc3ccc(O)cc3)nc21', 'II'),
  ('CCn1c(-c2ccco2)nc2c(N)nc(NCCc3ccc(O)cc3)nc21', 'I'),
  ('CCn1cnc2c(N)nc(NCCc3ccc(OC)cc3)nc21', 'III');

----------
Target: human recombinant A2AAR (Homo sapiens)
Construct: membrane preparation
Sequence (P29274 whole entry): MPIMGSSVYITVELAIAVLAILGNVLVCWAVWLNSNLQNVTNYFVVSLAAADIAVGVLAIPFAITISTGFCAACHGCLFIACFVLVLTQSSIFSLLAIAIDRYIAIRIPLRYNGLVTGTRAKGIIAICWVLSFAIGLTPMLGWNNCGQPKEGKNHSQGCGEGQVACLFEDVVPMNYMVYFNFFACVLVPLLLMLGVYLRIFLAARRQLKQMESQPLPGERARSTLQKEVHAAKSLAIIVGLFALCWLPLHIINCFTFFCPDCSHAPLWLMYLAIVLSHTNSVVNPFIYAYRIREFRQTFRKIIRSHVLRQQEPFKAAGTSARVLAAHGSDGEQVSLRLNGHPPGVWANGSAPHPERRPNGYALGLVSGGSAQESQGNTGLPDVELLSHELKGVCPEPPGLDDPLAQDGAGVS
Assay: Radioligand binding at human A2AAR ([3H]NECA displacement, CHO cell membranes)
Details: displacement of [3H]NECA, CHO membranes, n = 3–5, means ± standard errors
pKi: −log10 of the molar value.
Classification field: enter 1 for pKi values not below 7, -1 for values below it.

INSERT INTO measurements (smiles_text, group_label) VALUES
  ('CSc1nc(N)n2nc(S(C)(=O)=O)nc2n1', -1),
  ('CCn1c(O)nc2c(N)nc(NCCc3ccc(OC)cc3)nc21', -1),
  ('CCn1c(Br)nc2c(N)nc(NCCc3ccc(O)cc3)nc21', 1),
  ('CCOc1nc(N)n2nc(OCC)nc2n1', -1),
  ('CCn1c(O)nc2c(N)nc(NCCc3ccc(O)cc3)nc21', -1),
  ('CCn1cnc2c(N)nc(NCCc3ccc(OC)cc3)nc21', -1),
  ('CCOc1nc2nc(SC)nc(N)n2n1', -1),
  ('CCn1c(-c2ccco2)nc2c(N)nc(NCCc3ccc(OC)cc3)nc21', 1),
  ('CCn1c(Br)nc2c(N)nc(NCCc3ccc(OC)cc3)nc21', 1),
  ('CCn1c(-c2ccco2)nc2c(N)nc(NCCc3ccc(O)cc3)nc21', 1);

----------
Each entry below carries its recorded pKi.
Molecular target: A2BAR (Homo sapiens, UniProt P29275)
Construct: expressed in transfected cells
Sequence (P29275 1-332): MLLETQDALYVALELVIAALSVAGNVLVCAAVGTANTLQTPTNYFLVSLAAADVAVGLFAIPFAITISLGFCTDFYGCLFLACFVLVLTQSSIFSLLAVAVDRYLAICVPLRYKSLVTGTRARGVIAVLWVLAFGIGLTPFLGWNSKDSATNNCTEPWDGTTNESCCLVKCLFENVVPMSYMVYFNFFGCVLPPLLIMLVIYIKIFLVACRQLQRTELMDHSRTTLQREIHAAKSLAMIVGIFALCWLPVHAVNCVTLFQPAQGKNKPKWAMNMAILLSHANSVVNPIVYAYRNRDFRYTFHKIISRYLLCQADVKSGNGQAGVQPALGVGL
Test: Functional study at A2BAR (GloSensor cAMP assay; inhibition of NECA-stimulated adenylyl cyclase activity)
Type: cell-based
Settings: Ki calculated from IC50 of inhibition of NECA-stimulated adenylyl cyclase activity, CHO cells
pKi: −log10 of the molar value.
Parameter Measured: pKi

INSERT INTO measurements (smiles_text, qualifier_operator, meas_value) VALUES
  ('CCn1c(O)nc2c(N)nc(NCCc3ccc(O)cc3)nc21', '<', 4.52),
  ('CCn1c(Br)nc2c(N)nc(NCCc3ccc(OC)cc3)nc21', '=', 5.37),
  ('CCn1c(-c2ccco2)nc2c(N)nc(NCCc3ccc(OC)cc3)nc21', '<', 4.52),
  ('CCn1c(Br)nc2c(N)nc(NCCc3ccc(O)cc3)nc21', '=', 6.41),
  ('CCn1cnc2c(N)nc(NCCc3ccc(OC)cc3)nc21', '<', 4.52),
  ('CCn1c(-c2ccco2)nc2c(N)nc(NCCc3ccc(O)cc3)nc21', '=', 5.84),
  ('CCn1c(O)nc2c(N)nc(NCCc3ccc(OC)cc3)nc21', '<', 4.52);

----------
Target: human recombinant A1AR (Homo sapiens, UniProt P30542)
Construct: expressed in transfected cells; membrane preparation
Sequence (P30542 1-326): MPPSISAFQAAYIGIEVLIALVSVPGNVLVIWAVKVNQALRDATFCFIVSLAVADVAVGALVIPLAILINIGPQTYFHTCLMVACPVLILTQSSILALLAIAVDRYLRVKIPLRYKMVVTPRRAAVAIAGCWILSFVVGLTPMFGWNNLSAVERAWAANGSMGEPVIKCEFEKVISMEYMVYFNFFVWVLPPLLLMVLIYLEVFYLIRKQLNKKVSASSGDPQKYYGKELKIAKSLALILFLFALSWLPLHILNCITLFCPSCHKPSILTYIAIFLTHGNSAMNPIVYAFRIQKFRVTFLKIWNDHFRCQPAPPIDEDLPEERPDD
Assay: Radioligand binding at human A1AR ([3H]CCPA displacement, CHO cell membranes)
Settings: displacement of [3H]CCPA, n = 3–5, means ± standard errors
Ki listing for selected compounds.
Parameter Measured: Ki (µM)

INSERT INTO results (smiles_text, parameter_measured, meas_value) VALUES
  ('CCn1cnc2c(N)nc(NCCc3ccc(OC)cc3)nc21', 'Ki', 5.84),
  ('CCOc1nc2nc(SC)nc(N)n2n1', 'Ki', 4.57),
  ('CCn1c(-c2ccco2)nc2c(N)nc(NCCc3ccc(O)cc3)nc21', 'Ki', 0.051),
  ('CCn1c(O)nc2c(N)nc(NCCc3ccc(OC)cc3)nc21', 'Ki', 1.39),
  ('CCn1c(Br)nc2c(N)nc(NCCc3ccc(O)cc3)nc21', 'Ki', 0.411),
  ('CCOc1nc(N)n2nc(OCC)nc2n1', 'Ki', 6.36),
  ('CSc1nc(N)n2nc(S(C)(=O)=O)nc2n1', 'Ki', 5.72),
  ('CCn1c(-c2ccco2)nc2c(N)nc(NCCc3ccc(OC)cc3)nc21', 'Ki', 0.0026),
  ('CCn1c(Br)nc2c(N)nc(NCCc3ccc(OC)cc3)nc21', 'Ki', 0.545),
  ('CCn1c(O)nc2c(N)nc(NCCc3ccc(O)cc3)nc21', 'Ki', 7.05);
